# credit: patent US20250250357A1

- targetOfAssay: T1, human MSLN-FL-his protein (human, UniProt Q13421 296-580)
- T1 construct: Made in HEK293E cells, purified on nickel column; it is put last here; also called human MSLN full-length protein; hMSLN-FL-his; not shown: His tag
- T1 sequence (Q13421 other isoform, or with tags, fused parts or gaps): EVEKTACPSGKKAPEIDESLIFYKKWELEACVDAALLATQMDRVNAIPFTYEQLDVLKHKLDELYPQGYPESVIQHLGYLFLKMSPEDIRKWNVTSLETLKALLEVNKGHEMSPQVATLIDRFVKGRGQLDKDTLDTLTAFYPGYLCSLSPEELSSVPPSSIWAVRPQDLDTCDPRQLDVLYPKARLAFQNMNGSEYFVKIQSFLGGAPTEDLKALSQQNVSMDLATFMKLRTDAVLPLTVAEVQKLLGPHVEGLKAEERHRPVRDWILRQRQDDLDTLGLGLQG
- testDescription: ELISA on coated antigen, antibody 0.0001 nM
Hi there, I'd appreciate the recorded OD450 for every entry that follows.
Give bare numbers, in OD.

Examples from the recorded data:
binder	displayUnit	recordedResult
S009-F8-5.15 (antibody, human IgG1, kappa, V domains shown, Human-murine chimeric antibody, human IgG1 heavy and kappa light constant regions) VH: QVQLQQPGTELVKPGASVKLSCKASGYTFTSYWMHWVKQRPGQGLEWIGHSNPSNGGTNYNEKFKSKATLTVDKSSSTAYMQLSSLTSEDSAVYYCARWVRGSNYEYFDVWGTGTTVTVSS VL: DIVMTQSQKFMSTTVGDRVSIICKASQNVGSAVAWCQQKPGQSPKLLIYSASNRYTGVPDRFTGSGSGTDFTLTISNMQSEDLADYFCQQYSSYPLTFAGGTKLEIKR	OD	0.05
S009-F8-8.22 (antibody, human IgG1, kappa, V domains shown, Human-murine chimeric antibody, human IgG1 heavy and kappa light constant regions) VH: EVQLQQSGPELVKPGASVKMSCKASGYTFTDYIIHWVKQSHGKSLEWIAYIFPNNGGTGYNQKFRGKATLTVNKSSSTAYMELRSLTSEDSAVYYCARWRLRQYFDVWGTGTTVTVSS VL: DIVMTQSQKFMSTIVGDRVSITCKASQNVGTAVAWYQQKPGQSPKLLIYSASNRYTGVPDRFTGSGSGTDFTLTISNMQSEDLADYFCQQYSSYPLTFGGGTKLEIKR	OD	0.1

Next, consider the following binder.
Inquiry: Find the recorded OD450 belonging to S009-F8-4.5 (antibody, human IgG1, kappa, V domains shown, Human-murine chimeric antibody, human IgG1 heavy and kappa light constant regions) VH: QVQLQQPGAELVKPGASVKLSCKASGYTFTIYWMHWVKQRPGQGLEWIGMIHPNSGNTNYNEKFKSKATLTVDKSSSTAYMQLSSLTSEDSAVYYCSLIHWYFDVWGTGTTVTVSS VL: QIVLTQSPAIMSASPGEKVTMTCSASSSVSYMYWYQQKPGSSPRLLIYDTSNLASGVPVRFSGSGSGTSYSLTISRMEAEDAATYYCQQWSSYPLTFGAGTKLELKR and report it.
Reply text: 0.07
